Reported TGI values follow for various molecules
# Tested on: OVCAR-8 ovarian
# Method Notes: NCI tumour cell line growth inhibition, 48 h

# Molecule, TGI
data = [
    ("Cc1cc(C)c2c(c1)N(C)c1ncnc(-n3cnc4cc(C)ccc43)c1CC2C (stereo not given)", "20 µM"),
    ("CCOC(=O)C(=O)C(C#N)c1ccc(Cl)cc1 (stereo not given)", "> 100 µM"),
    ("C=CCOCn1cnc2c(=O)[nH]c(N)nc21", "> 100 µM"),
    ("O=C(CC(=O)N1N=C(N(c2ccccc2)c2ccccc2)CC1c1ccccc1)Nc1cccc(Cl)c1 (stereo not given)", "> 100 µM"),
    ("O=c1oc2ccccc2n1P(=O)(Oc1ccc(Cl)cc1)n1c(=O)oc2ccccc21", "> 100 µM"),
    ("CN(C)c1ccc(/C=c2/c3cc(O)ccc3n3c2cc(-c2ccccc2)[n+]3C)cc1", "2.03 µM"),
    ("O=C(Nc1ccc(Cl)cc1)c1cc(S(=O)(=O)N2CCNNC2=O)c(S)cc1Cl", "> 100 µM"),
    ("COC(=O)[C@H](Cc1ccccc1)NC(=O)N(CCNC(=O)OC(C)(C)C)c1ccccc1", "> 100 µM"),
    ("CC(C)[Si](Oc1ccc(CC2N(C(=O)c3ccc([N+](=O)[O-])cc3)C(CCc3ccccc3)CC2(C)C=O)cc1)(C(C)C)C(C)C (stereo not given)", "42.5 µM"),
    ("Cc1[nH]nc(C(=O)N/N=C/c2ccccc2Cl)c1N=NN(C)C", "> 100 µM"),
    ("CCCCOC(=O)c1c(C)[nH]c(/C=C2\\N=C(c3ccc[nH]3)C=C2OC)c1C", "13.8 µM"),
    ("CC(=O)OCC1OC(O[C@H]2C=C[C@@H](C(=O)OCc3ccccc3)n3c(=O)n(-c4ccccc4)c(=O)n32)C(OC(C)=O)C(OC(C)=O)C1OC(C)=O (stereo not given in full)", "7.41 µM"),
    ("COC(=O)[C@]12CC[C@@H](C)[C@H](C)[C@@H]1C1=CC[C@@H]3[C@@](C)(CC#N)C4=C(C[C@@]3(C)[C@]1(C)CC2)OC[C@]4(C)C=O", "> 100 µM"),
    ("C[C@]12CC[C@H]3[C@@H](CC[C@]4(O)C[C@@H](O[C@@H]5O[C@H](CO)[C@@H](O[C@@H]6OC[C@@H](O)[C@H](O)[C@H]6O)[C@H](O)[C@H]5O)CC[C@]34C=O)[C@@]1(O)CC[C@@H]2C1=CC(=O)OC1", "5.56 µM"),
    ("COc1ccc2nc3ccccc3c(NCCN(CCCl)CCCl)c2c1", "2.9 µM"),
    ("COc1ccc(CNc2nc3cc(C(F)(F)F)ccc3nc2C(=O)O)cc1", "> 100 µM"),
    ("O=C(CCN1CCCN(c2cnc3ccccc3n2)CC1)c1csc2ccccc12", "48.4 µM"),
    ("Cc1cc(=O)oc2c(C)c3oc(CBr)cc3cc12", "66.7 µM"),
    ("COc1cc(C)[nH]c(=O)c1CNC(=O)c1c(C)n([C@H](C)C2CCN(CC(F)(F)F)CC2)c2ccccc12", "> 100 µM"),
    ("O=CC1OC(=O)c2cc(O)c(O)c(O)c2-c2c(cc(O)c(O)c2O)C(=O)OC1C1OC(=O)c2cc(O)c(O)c(O)c2-c2c(O)c(O)c3oc(=O)c4c(c(O)c(O)c5oc(=O)c2c3c54)-c2c(cc(O)c(O)c2O)C(=O)OCC1O (stereo not given)", "41.2 µM"),
    ("O=C1c2ccc3c4c(ccc(c24)C(=O)N1CCNCc1ccccc1)C(=O)N(CCNCc1ccccc1)C3=O", "4.26 µM"),
    ("CC(C)c1c(O[Si](C(C)C)(C(C)C)C(C)C)cc2c(c1O)CC[C@H]1C(C)(C)CCC[C@]21C", "> 100 µM"),
    ("CCCCCCCCCCCCc1ccsc1-c1ccc(-c2ccc(-c3sccc3CCCCCCCCCCCC)s2)s1", "> 100 µM"),
    ("CCOC(=O)c1cc([N+](=O)[O-])c(Sc2ncnc3nc[nH]c23)c([N+](=O)[O-])c1", "17.9 µM"),
    ("COc1c(B(O)O)cccc1-c1nc2c(F)cc3n[nH]c(C)c3c2c2c1CCCC2", "> 50 µM"),
]

All figures here come from PubChem BioAssay (NCI).
